Experiment: MM1S myeloma cell viability, profiling panel, resazurin fluorescence, basal, 24 h, PK04 Diversity Set (AID 1174);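 further: MM1S multiple myeloma cell line; test concentration not given here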
Conditions: higher = more signal, called active from +8 up or from −8 down
VALUE_TYPE: z-score
I'd appreciate a reply containing only the number, no unit.

Below, each entry is followed by its recorded z-score result.
>  <COMPOUND>
CON=C[C@@H](C)[C@H](OCc1ccccc1)C(C)C

>  <z-score>
0.548

$$$$
>  <COMPOUND>
COC(=O)[C@H]1[C@@H](O)[C@@]2(O)c3ccccc3O[C@@]2(c2ccccc2)[C@@H]1c1ccccc1

>  <z-score>
-0.683

$$$$

[Q] What does the data say about its z-score? Entry: CO[C@H]1COC(=O)CC=C[C@H](C)COC(=O)[C@@H](C)NC(=O)CC=C[C@@H]1C
[A] 1.31

[Q] What does the data say about its z-score? Entry: COC(=O)[C@H](C)NC(=O)CCC1CC(OC(=O)NCc2ccc3c(c2)OCO3)CC2(CCCC(COC(=O)NCC3CCCCC3)O2)O1 (stereo partly specified)
[A] 0.138

[Q] What does the data say about its z-score? Entry: O=C1[C@H]2[C@H]3[C@H](O)[C@H](O)CC(=NOC[C@@H](O)COCc4ccco4)[C@H]3CC[C@H]2C(=O)N1c1ccc(F)cc1F
[A] 0.988

[Q] What does the data say about its z-score? Entry: COc1cccc([C@H]2Oc3ccc(OC)cc3C(=NOC[C@@H](O)[C@H]3O[C@@H]4OC(C)(C)O[C@@H]4[C@H]3O)[C@@H]2O)c1
[A] -1.21

[Q] What does the data say about its z-score? Entry: O=C1CCCC=C1C(O)CCCCBr (stereo unspecified)
[A] -8.08

[Q] What does the data say about its z-score? Entry: CO[C@H]1COC(=O)[C@H](C)NC(=O)[C@@H](C)COC(=O)[C@H]2CCCN2C(=O)CC=C[C@H]1C
[A] 0.0177

[Q] What does the data say about its z-score? Entry: C#CCCCON=C1C[C@@H](O)[C@@H](O)[C@@H]2[C@@H]3C(=O)N(c4ccc(F)cc4F)C(=O)[C@@H]3CC[C@H]12
[A] 0.475

[Q] What does the data say about its z-score? Entry: Cc1cc2c(nc1C)CCCCN2CC(C)ON=C1[C@H]2CCn3c(=O)n(-c4ccccc4)c(=O)n3[C@H]2[C@H](O)[C@@H]2O[C@H]12 (stereo partly specified)
[A] -3.13

[Q] What does the data say about its z-score? Entry: C=CC[C@@H]1C=C[C@H](ON=C[C@@H](C)[C@H](OCc2ccccc2)C(C)C)[C@@H](CO)O1
[A] -0.865

[Q] What does the data say about its z-score? Entry: COC(=O)CC=C[C@@H](C)[C@H](OCc1cccc(-c2ccccc2)c1)C1CCCCC1
[A] 0.45

[Q] What does the data say about its z-score? Entry: COC(=O)CC=C[C@@H](C)[C@@H](C=NOC[C@@H](O)[C@H]1O[C@@H]2OC(C)(C)O[C@@H]2[C@H]1O)NS(=O)(=O)c1ccc(C)cc1
[A] -0.502

[Q] What does the data say about its z-score? Entry: CO[C@@H]1COC(=O)CC=C[C@H](C)[C@H](OC)COC(=O)[C@H](C)NC(=O)CC=C[C@H]1C
[A] 0.978

[Q] What does the data say about its z-score? Entry: C#CCCCON=C1C[C@@H](O)[C@@H](O)[C@@H]2[C@@H]3C(=O)N(CCC(=O)OCC)C(=O)[C@@H]3CC[C@H]12
[A] -0.307

[Q] What does the data say about its z-score? Entry: CCOC(=O)NN=C1C[C@@H](O)[C@@H](O)[C@@H]2[C@@H]3C(=O)N(Cc4ccccc4)C(=O)[C@@H]3CC[C@H]12
[A] 1.41
